target: T1, ZIKV (prM80E) with a C-terminal myc-myc-hexahistidine tag (Zika virus, UniProt A0A024B7W1 104-694); assay: SPR, mAb captured, 37C
T1 construct: also called ZIKV (prM80E)-mmH; ZIKV-mmH
recorded.endpoint: koff (s⁻¹)
Write down the numeric answer in s⁻¹ and omit the unit.

{"binder": "H4H25591P (antibody, V domains shown) VH: QVQLVESGGGVVQPGRSLRLSCAASGFTFSYSGMHWVRQAPGKGLEWVAVISYDGINKYYADSVKGRFTISRDNSKNTLYLQMNSLRPEDTAVYYCAKDRGGRFDPWGQGTLVTVSS VL: DIQMTQSPSSLSASVGDRVTITCRASQGISNYLAWYQQKPGKVPNLLIYGASTLHSGVPSRFSGSGSGTDFTLTISSLQPADVATYYCQKYNSAPLTFGGGTKVEIK", "value.unit": "s⁻¹", "koff": 0.00682}

Attention now shifts to the item below.
In plain terms, H4H25710N (antibody, V domains shown) VH: EVQLLESGGGLVQPGGSLRLSCAASGFTVSNNYMSWVRQAPGKGLEWVSVIYSGGRTNYGDSVKGRFTISRDNSKNTLYLQMNSLRAEDTAVYYCARENYDFWSGDPYGWDVWGQGTTVTVSS VL: DIQMTQSPSSLSASVGDRVTITCRASQDISNYLAWFQQKPGKAPKSLIYGASSLQRGVPSKFRGSGSGTDFTLTISSLQPEDFASYYCQQYNSYPYTFGQGTKLEIK has a documented koff of 0.0064
